# pIC50 listing for each entry below
# experimental.system: K-Ras^G12C : hSOS1 interaction (Homo sapiens, UniProt Q07889)
# method.summary: Biochemical assay 1: K-Ras^G12C interaction assay with hSOS1 (HTRF)
# Format: binding
# setup.conditions: read-out: Assay 1 (KRAS-SOS Interaction) activity expressed as IC50
To interpret pIC50, take it as minus log10 of a concentration measured in moles per litre.

Known pIC50 results, listed for orientation:
CCOc1cc2c(N[C@H](C)c3cccc(-c4cnn(CC)c4)c3)nc(C)nc2cc1OC [Example 356] | 6.18
COc1cc2nc(C)nc(NC(C)c3ccc(-c4ccccc4CNCC(N)=O)s3)c2cc1OC (centres unmarked) [Example 279] | 6.75
COc1cc2nc(C)nc(NC(C)c3ccc4c(c3)NC(=O)CO4)c2cc1OC (centres unmarked) [Example 34] | 5.37
COc1cc2nc(C)nc(NC(C)c3cc(Br)cc4c3OCC4)c2cc1OC (centres unmarked) [Example 214] | 5.48
COc1cc2nc(C)nc(N[C@H](C)c3cccc(-c4ccc5c(c4)OCCO5)c3)c2cc1OC [Example 125] | 5.69

Q. Can you look up the measured pIC50 of COc1cc2nc(C)nc(NC(C)c3ccc(-c4cnc5n4CCC5)s3)c2cc1OC (single isomer, unassigned; enantiomer 1) [Example 328] for me?
A. 6.85

Q. Quick one: pIC50 of COc1cc2nc(C)nc(N[C@@H](C)c3ccc(-c4ccc(CNS(C)(=O)=O)cc4)s3)c2cc1OC (racemic) [Example 140] ?
A. 5.27

Q. // query pIC50 value for entry COc1cc2nc(C)nc(N[C@H](C)c3cccc(/C=C/c4ccccc4)c3)c2cc1OC [Example 114]
A. 5.28
